meta.source: ChEMBL document CHEMBL1150919

assay-text: Inhibition of HIV2 reverse transcriptase-mediated DNA polymerase activity
Parameters: species or system Human immunodeficiency virus 2
measured-attribute: pIC50
Answers are plain numbers, as −log10 of the molar value.

Ask: Record request: pIC50 value, item CCCCCCCC/C=C\CCCCCCCC(=O)OC[C@H](CO[C@H]1O[C@H](CS(=O)(=O)O)[C@@H](O)[C@H](O)[C@H]1O)OC(=O)CCCCCCCCCCCCCCC
Result: 7.47

###

system-under-test: Human immunodeficiency virus type 1 reverse transcriptase (Human immunodeficiency virus 1)
assay-text: Inhibition of HIV1 reverse transcriptase activity assessed as residual enzyme activity by poly(rA)n.oligo(dT)12-18-directed incorporation of [3H]dTTP into DNA
measured-attribute: IC90 (µM)
One number for each entry, in µM.

Check out these entries, answers already filled in.
[
  {
    "compound-structure-string": "CCCCC/C=C\\C/C=C\\CCCCCCCC(=O)OC[C@H](CO[C@H]1O[C@H](CS(=O)(=O)O)[C@@H](O)[C@H](OC(=O)CCCCCCCCCCCCCCC)[C@H]1OC(=O)CCCCCCCCCCCCCCC)OC(=O)CCCCCCCCCCCCCCC",
    "value": 14
  },
  {
    "compound-structure-string": "CCCCCCCC/C=C\\CCCCCCCC(=O)OC[C@H](CO[C@H]1O[C@H](CS(=O)(=O)O)[C@@H](O)[C@H](O)[C@H]1O)OC(=O)CCCCCCCCCCCCCCC",
    "value": 0.076
  },
  {
    "compound-structure-string": "CCCCC/C=C\\C/C=C\\CCCCCCCC(=O)OC[C@H](CO[C@H]1O[C@H](CS(=O)(=O)O)[C@@H](O)[C@H](O)[C@H]1O)OC(=O)CCCCCCCCCCCCCCC",
    "value": 0.28
  }
]

Ask: // query IC90 value for entry CCCCCCCCCCCCCCCC(=O)OC[C@H](CO[C@H]1O[C@H](CS(=O)(=O)O)[C@@H](O)[C@H](O)[C@H]1O)OC(=O)CCCCCCCCCCCCCCC
Result: 0.465
